Test system: CEM-SS
Experiment: Effective concentration against HIV-1RF induced cytopathicity in CEM-SS cells
Type: functional, cell-based
Conditions: Homo sapiens
Metric: EC50 (µM)

A selection of reference data follows.
CCCCCCCC/C=C\CCCCCCCCOP(=O)(O)OCCC=C(c1cc(Cl)c(O)c(C(=O)O)c1)c1cc(Cl)c(O)c(C(=O)O)c1: 49
CCCCCCCCCCCCCCCC=C(c1cc(Cl)c(O)c(C(=O)O)c1)c1cc(Cl)c(O)c(C(=O)O)c1: 19.8
CCCCC/C=C\C/C=C\CCCCCCCCOP(=O)(O)OCCC=C(c1cc(Cl)c(O)c(C(=O)O)c1)c1cc(Cl)c(O)c(C(=O)O)c1: 51.8

[P] O=C(O)c1cc(Cc2cc(Cl)c(O)c(C(=O)O)c2)cc(Cl)c1O
[Q] CCCCCCCCCCCCCCCCCCCCCCCCCCCCCC=C(c1cc(Cl)c(O)c(C(=O)O)c1)c1cc(Cl)c(O)c(C(=O)O)c1
Request: Of P and Q , which one carries the higher reported EC50? Returns: label corresponding to the selected item.
Result: P
(P: 329 µM, Q: 13.1 µM)
